Molecular target: T1, 4H918-bA
T1 chain: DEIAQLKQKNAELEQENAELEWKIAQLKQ
Test: two-hybrid library CCNG1;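 further: natural log of median RNA to DNA barcode read ratio; higher means stronger binding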
Measured metric: interaction score

Below, each entry is followed by its recorded interaction score result.
Binder	Measured metric	Value observed
DEIAQLKQKIAELKQKNAELEWENAQLEQ [4H883-bA]	interaction score	-1.15
DKNAQLEQEIAELKQKNAELEWKIAQLEQ [4H3189-bA]	interaction score	-1.44
DEIAQLKQKNAELEQENAELEWKIAQLKQ [4H918-bA]	interaction score	0.453
DKIAQLKQEIAELEQENAELKWEIAQLKQ [4H2586-bA]	interaction score	-0.499
DKIAQLKQEIAELEQKNAELEWEIAQLKQ [4H2610-bA]	interaction score	1.13

[I] DEIAQLKQKIAELEQENAELKWKIAQLEQ [4H797-bA]
[II] DEIAQLKQENAELEQKIAELKWENAQLEQ [4H683-bA]
## Task Hi team, can someone confirm which has the larger interaction score: I or II ? Thanks. Please identify the chosen entry by its label.
## Result I
(I: 0.787, II: -0.784)

Data origin: paper PMC10397247
